ASSAY_TARGET: CaV2.2 (Homo sapiens, UniProt Q00975)
Construct: expressed in transfected cells; host or cells: unnamed doxycycline-inducible cell line
Sequence (Q00975 whole entry): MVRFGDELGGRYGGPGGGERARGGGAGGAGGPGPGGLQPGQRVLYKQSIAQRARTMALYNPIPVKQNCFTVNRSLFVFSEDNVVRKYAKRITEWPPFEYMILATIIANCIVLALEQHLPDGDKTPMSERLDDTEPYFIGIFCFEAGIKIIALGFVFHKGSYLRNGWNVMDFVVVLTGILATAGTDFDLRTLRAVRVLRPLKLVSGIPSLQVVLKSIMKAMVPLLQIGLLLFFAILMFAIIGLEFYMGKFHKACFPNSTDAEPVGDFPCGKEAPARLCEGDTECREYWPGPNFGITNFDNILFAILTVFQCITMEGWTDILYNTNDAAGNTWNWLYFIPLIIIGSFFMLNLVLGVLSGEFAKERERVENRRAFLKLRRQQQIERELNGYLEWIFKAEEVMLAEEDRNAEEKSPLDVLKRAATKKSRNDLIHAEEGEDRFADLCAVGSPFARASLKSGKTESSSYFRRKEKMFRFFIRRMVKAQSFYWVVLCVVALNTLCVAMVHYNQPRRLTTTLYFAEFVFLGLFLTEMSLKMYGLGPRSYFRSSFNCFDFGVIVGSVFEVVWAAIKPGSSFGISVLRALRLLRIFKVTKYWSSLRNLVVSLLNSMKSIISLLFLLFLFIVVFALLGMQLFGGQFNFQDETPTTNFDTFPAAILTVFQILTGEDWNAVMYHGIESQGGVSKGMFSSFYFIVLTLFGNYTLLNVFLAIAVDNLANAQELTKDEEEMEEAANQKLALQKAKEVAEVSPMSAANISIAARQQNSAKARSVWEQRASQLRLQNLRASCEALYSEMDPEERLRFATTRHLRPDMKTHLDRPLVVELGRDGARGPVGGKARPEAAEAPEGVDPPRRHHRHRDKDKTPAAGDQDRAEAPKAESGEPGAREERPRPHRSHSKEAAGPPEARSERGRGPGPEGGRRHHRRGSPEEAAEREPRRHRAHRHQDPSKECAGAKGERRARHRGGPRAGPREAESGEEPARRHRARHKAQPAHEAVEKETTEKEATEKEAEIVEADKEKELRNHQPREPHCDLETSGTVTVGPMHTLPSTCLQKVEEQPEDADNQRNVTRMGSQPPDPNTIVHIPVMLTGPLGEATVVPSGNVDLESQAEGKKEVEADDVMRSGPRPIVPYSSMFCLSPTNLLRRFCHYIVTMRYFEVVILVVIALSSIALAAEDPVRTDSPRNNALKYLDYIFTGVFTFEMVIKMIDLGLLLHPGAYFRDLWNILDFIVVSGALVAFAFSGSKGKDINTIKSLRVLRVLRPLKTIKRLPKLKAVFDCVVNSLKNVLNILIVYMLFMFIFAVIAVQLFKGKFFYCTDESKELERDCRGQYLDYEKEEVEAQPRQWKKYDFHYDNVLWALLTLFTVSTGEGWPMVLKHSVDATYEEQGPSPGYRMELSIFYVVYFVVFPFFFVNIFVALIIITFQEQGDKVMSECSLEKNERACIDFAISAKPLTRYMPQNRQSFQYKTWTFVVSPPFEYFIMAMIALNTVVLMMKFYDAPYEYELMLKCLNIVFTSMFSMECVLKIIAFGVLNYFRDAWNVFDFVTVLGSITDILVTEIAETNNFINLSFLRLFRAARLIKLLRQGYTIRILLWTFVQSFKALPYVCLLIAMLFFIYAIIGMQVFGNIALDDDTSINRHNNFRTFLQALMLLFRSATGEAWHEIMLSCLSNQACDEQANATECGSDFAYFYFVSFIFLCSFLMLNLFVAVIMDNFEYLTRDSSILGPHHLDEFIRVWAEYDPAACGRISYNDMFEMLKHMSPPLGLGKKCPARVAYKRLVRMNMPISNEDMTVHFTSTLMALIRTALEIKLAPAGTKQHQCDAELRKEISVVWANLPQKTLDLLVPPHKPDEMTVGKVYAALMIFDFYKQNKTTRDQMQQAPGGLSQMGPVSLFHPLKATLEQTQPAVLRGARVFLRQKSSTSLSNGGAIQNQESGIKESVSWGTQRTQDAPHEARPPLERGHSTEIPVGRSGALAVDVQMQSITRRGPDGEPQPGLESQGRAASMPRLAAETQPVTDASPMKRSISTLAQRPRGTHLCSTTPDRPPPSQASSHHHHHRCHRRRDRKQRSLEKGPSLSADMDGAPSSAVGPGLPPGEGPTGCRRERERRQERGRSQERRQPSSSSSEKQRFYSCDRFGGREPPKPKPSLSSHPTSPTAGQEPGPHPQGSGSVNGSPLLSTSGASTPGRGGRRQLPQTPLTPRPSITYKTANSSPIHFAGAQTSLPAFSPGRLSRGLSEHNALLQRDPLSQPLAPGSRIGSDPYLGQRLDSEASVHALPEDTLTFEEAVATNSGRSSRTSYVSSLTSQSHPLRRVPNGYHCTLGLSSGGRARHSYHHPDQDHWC
Sequence (P54284 whole entry partner): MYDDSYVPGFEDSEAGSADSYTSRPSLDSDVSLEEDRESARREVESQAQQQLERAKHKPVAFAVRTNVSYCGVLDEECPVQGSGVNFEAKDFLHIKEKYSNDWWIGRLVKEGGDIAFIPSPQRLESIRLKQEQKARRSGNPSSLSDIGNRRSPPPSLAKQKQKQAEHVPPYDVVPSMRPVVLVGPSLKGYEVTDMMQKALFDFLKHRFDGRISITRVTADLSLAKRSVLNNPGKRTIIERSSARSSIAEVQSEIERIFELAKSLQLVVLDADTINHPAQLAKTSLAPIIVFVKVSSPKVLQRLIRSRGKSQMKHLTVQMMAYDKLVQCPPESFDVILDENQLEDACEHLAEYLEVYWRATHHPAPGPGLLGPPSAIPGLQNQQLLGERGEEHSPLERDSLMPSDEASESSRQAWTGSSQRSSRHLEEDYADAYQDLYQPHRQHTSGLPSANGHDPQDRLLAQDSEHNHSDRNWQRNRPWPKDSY
Sequence (P54289 25-946 partner limits assumed): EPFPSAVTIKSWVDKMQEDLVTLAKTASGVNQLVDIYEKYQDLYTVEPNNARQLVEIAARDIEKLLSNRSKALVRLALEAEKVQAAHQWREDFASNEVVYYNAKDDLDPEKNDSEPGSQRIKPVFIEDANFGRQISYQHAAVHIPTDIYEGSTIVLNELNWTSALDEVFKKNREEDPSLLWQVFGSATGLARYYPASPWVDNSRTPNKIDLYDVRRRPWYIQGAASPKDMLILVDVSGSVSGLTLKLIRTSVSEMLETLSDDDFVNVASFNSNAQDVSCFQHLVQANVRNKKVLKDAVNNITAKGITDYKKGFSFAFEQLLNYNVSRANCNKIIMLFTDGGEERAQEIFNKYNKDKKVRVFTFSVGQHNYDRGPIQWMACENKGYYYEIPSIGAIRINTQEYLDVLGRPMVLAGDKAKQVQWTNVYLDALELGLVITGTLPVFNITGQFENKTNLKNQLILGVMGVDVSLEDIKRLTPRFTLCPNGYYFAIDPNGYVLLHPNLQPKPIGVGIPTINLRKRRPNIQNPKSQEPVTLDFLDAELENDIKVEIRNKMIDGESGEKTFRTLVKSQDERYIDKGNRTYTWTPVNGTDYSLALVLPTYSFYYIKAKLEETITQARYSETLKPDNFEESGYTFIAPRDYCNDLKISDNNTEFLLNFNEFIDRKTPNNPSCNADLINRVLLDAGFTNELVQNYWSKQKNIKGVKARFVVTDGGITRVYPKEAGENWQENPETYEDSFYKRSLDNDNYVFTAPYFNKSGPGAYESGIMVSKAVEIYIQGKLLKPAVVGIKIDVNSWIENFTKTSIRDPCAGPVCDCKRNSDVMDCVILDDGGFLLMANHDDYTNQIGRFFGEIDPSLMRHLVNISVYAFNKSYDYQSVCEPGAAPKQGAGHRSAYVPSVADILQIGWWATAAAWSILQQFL
Sequence (P54289 947-1103 partner limits assumed): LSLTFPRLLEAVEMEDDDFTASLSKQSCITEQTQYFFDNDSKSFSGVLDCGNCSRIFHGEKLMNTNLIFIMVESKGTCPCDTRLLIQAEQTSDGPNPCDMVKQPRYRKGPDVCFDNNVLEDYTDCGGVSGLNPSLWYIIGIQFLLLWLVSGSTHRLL
EXPERIMENT_NOTES: High-throughput CaV2.2/Kir2.3 FLIPR fluorescent assay
Assay type: cell-based
CONDITION_DESCRIPTION: Table 5; Fluo-4 FLIPR; closed or inactivated state not stated; read-out: FLIPR data CaV2.2
Each record gets a class by IC50: class 1 (below 700 nM), class 2 (700 nM to below 2000 nM), class 3 (2000 nM or more)

Worked examples follow.
{"columns": ["COMPOUND", "CLASS_NAME"],
 "data": [
  ["CC(C)(CNC(=O)C(C)(C)S(=O)(=O)c1cccc(C(F)(F)F)c1)S(=O)(=O)c1cccc(C(F)(F)F)c1 [Compound 149]", "class 1"],
  ["CC(C)(CCNC(=O)CC1(N)CCCCC1)S(=O)(=O)c1cccc(C(F)(F)F)c1 [Compound 223]", "class 1"],
  ["CC(C)(CCNC(=O)C(C)(C)S(=O)(=O)c1cccc(C(F)(F)F)c1)S(=O)(=O)c1cccc(C(F)(F)F)c1 [Compound 150]", "class 1"]
]}

Band of CC(C)(CNC(=O)c1cnc(C(F)(F)F)nc1)S(=O)(=O)c1cccc(C(F)(F)F)c1 [Compound 164] ?
class 3

Thanks! And CC(C)(CCNC(=O)[C@@H]1C[C@@H](O)CN1)S(=O)(=O)c1cccc(C(F)(F)F)c1 [Compound 217] ?
class 3

Thanks! And CC(C)(CNC(=O)c1ccc(C(F)(F)F)nc1S(C)(=O)=O)S(=O)(=O)c1cccc(C(F)(F)F)c1 [Compound 155] ?
class 2

Thanks! And CC(C)Oc1cccnc1C(C)(C)NC(=O)C(C)(C)S(=O)(=O)c1cccc(C(F)(F)F)c1 [Compound 147] ?
class 2

Thanks! And CC(C)(CCNC(=O)[C@@H]1C[C@@H](C2CCCCC2)CN1)S(=O)(=O)c1cccc(C(F)(F)F)c1 [Compound 218] ?
class 2

Thanks! And CC(C)(C)Oc1ccc(CNC(=O)C(C)(C)S(=O)(=O)c2cccc(C(F)(F)F)c2)cc1 [Compound 144] ?
class 1

Thanks! And CC(C)(CCNC(=O)Cc1cccc(S(C)(=O)=O)c1)S(=O)(=O)c1cccc(C(F)(F)F)c1 [Compound 193] ?
class 2

Thanks! And COc1cc(CCNC(=O)C(C)(C)S(=O)(=O)c2cccc(C(F)(F)F)c2)ccc1O [Compound 139] ?
class 2

Thanks! And CC(C)(C(=O)Nc1ccc(Oc2ccc(C(F)(F)F)cn2)nc1)S(=O)(=O)c1cccc(OC(F)(F)F)c1 [Compound 123] ?
class 2

Thanks! And Cc1ccc(C(=O)NCC(C)(C)S(=O)(=O)c2cccc(C(F)(F)F)c2)c(C)c1 [Compound 169] ?
class 2

Thanks! And CC(C)(CCNC(=O)[C@H]1CCCN1)S(=O)(=O)c1cccc(C(F)(F)F)c1 [Compound 220] ?
class 3

Thanks! And CC(C)(CCNC(=O)CC1CCNCC1)S(=O)(=O)c1cccc(C(F)(F)F)c1 [Compound 206] ?
class 3

----------
ASSAY_TARGET: CaV3.2 (Homo sapiens, UniProt O95180)
Construct: expressed in transfected cells; host or cells: unnamed doxycycline-inducible cell line
EXPERIMENT_NOTES: High-throughput CaV3.2/Kir2.3 T-type FLIPR fluorescent assay
Format: cell-based
CONDITION_DESCRIPTION: Table 4; Fluo-4 FLIPR; closed or inactivated state not stated
Procedure: Cells were plated in 384-well, clear-bottom, black-walled, poly-D-lysine coated plates (Becton Dickinson, Franklin Lake, N.J.) 2 days prior to use in the FLIPR assay. […] NaOH. […] A change in the Fluo-4 fluorescence signal was assessed using FLIPR^TETRA™ instrument (Molecular Devices, Sunnyvale, Calif.) for 3 minutes following the elevation of extracellular KCl using an illumination wavelength of 470-495 nm with emissions recorded at 515-575 nm. […] Data are expressed as mean and standard deviation (SD).
Catalogue of IC50 readings, one per entry.
Give the value, in units of nM, as a plain number.

For orientation, consider the following solved cases.
{"columns": ["STRUCTURE_STRING", "READOUT_UNIT", "IC50"],
 "data": [
  ["O=C(NCc1cc(S(=O)(=O)c2cccc(C(F)(F)F)c2)ccn1)[C@@H]1C[C@@H](C2CCCCC2)CN1", "nM", 2400],
  ["O=C(NCc1cccc(S(=O)(=O)c2cccc(C(F)(F)F)c2)c1)c1ccnn1CC(F)(F)F", "nM", 600],
  ["Cn1nc(C(F)(F)F)cc1C(=O)NCc1cc(S(=O)(=O)c2cccc(C(F)(F)F)c2)ccn1", "nM", 3970]
]}

Can you look up the measured IC50 of CS(=O)(=O)c1cc(C(F)(F)F)ccc1C(=O)NCc1cccc(S(=O)(=O)c2cccc(C(F)(F)F)c2)c1 for me?
730

Thanks! And O=C(NCc1ccccc1S(=O)(=O)c1cccc(C(F)(F)F)c1)c1ccc(C(F)(F)F)cn1 ?
1250

Thanks! And O=C(NCc1ccc(S(=O)(=O)c2cccc(C(F)(F)F)c2)cc1)[C@@H]1C[C@@H](C2CCCCC2)CN1 ?
2320

Thanks! And O=C(NCc1cccc(S(=O)(=O)c2cccc(C(F)(F)F)c2)c1)c1ccc(C(F)(F)F)cn1 ?
930
